All values here come from patent US20140087995A1.

tested target: T1, rat calcitonin receptor (rat, UniProt P32214 25-516)
T1 construct: whole, on cells; membranes of transiently transfected BHK tk'ts 13 cells (Assay VIII); also called rCTR; rat calcitonin (a) receptor
T1 sequence (looked up): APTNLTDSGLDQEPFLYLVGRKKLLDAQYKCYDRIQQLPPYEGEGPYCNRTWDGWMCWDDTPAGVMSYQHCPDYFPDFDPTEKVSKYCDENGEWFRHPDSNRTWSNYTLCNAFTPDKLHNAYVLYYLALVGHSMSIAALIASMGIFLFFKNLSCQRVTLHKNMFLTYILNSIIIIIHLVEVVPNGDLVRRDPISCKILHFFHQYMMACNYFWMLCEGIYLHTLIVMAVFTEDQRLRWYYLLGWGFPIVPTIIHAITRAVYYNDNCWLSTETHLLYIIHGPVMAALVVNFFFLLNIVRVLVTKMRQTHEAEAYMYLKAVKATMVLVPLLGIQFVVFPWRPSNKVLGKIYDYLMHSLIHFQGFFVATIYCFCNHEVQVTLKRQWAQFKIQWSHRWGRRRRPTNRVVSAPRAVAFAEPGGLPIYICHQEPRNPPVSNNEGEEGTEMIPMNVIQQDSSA
test details: IC50 on rat calcitonin receptor divided by IC50 on rat amylin receptor (SPA competition)
Numbered stars: 1 amine (or outer) side, 2 acyl side, 3 side chain; on linkers, the order of the positions; unused ones are H or OH. Bridge positions count the residues as written; N and C are the ends. Side chains are listed from the residue outwards. Ends that are not written are not given here. * marks the point of attachment. C20 diacid = O=C(O)CCCCCCCCCCCCCCCCCCC(=O)*; γGlu = O=C(O)[C@H](CCC(=O)[*:2])N[*:1]; AEEA = NCCOCCOCC(=O)O
observation type: Ratio rCT/rAmylin binding

{"columns": ["binder", "Ratio rCT/rAmylin binding"],
 "data": [
  ["K([AEEA-AEEA-γGlu-C20 diacid])CNTATCATQRLANFLRHSSPNFGAIPSSTNVGSETY-NH2 (disulfide 2-7 (inferred), analogue of human amylin; also called compound 25)", 37.7],
  ["K([γGlu-C20 diacid])CNTATCATQRLANFLRHSSPNFGAIPSSTNVGSKTY-NH2 (disulfide 2-7 (inferred), analogue of human amylin; also called compound 35) [N^ε1-[(4S)-4-carboxy-4-(19-carboxynonadecanoylamino)butanoyl]-[Arg17,Pro21,Pro27,Lys35]-h-amylin]", 65.1],
  ["{C20 diacid-γGlu}-KCNTATCATQRLAEFLRHSSPNFGAIPSSTPVGSNTY-NH2 (disulfide 2-7 (inferred), analogue of human amylin; also called compound 31)", 42.8],
  ["{C20 diacid-γGlu}-KCNTATCATQRLAEFLRHSSPNFGAPLSSTNVGSNTY-NH2 (disulfide 2-7 (inferred), analogue of human amylin; also called compound 7) [N^α1-[(4S)-4-carboxy-4-(19-carboxynonadecanoylamino)butanoyl]-[Glu14,Arg17,Pro21,Pro26]-h-amylin]", 42],
  ["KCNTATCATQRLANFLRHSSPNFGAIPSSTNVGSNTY (C20 diacid-gGlu-2xOEG on the alpha amino group of the N-terminal residue (Lys 1); disulfide bridge between the two Cys residues; C-terminal amide, analogue of human amylin; also called compound 24)", 116]
]}
